# credit: PubChem BioAssay (NCI)

tested on: SK-OV-3 ovarian; test: NCI tumour cell line growth inhibition, 48 h
Value kind: TGI

Observe how each entry below is paired with its result.
1. Cc1nc(C)c(C(=O)Nc2cccc3c2C(=O)NC3=O)cc1C(=O)Nc1cccc2c1C(=O)NC2=O: > 100 µM
2. O=NC1c2cccc3cccc(c23)C1N=O (configuration not stated): 43.7 µM
3. CC1=CC(O)C(O)C2(C)C1CC1OC(=O)C(O)C3C(C)C(O)C4(O)OCC13C42 (configuration not stated): 359 µM
4. O=C1NC(=S)N/C1=C/c1ccccc1O: > 100 µM
5. C/C(=C/CO[Si](C)(C)C(C)(C)C)C(=O)N(C)c1ccccc1I: 35.5 µM

Input: For the molecule shown here, COc1ccc(-c2oc(=O)ccc2C#Cc2cc(OC)c(OC)c(OC)c2)cc1O , give the reported TGI.
Output: > 100 µM

Input: // repeat for C=CCC(CNC(=O)OCc1ccccc1)O[Si](C)(C)C(C)(C)C (configuration not stated) and report
Output: > 100 µM

Input: // repeat for O=c1[nH]c(=O)n(C2OC(COP(=O)(O)OP(=O)(O)O)C(O)C2O)cc1F (configuration not stated) and report
Output: 47.8 µM

----------
tested on: IGROV1 ovarian; assay: NCI tumour cell line growth inhibition, 48 h
Value kind: TGI (µM)
State just the number; it will be interpreted in µM.

1) COc1cc(C)c(C(=O)O[C@H]2[C@H](O[C@H]3[C@@H](O)COC(O[C@H]4C[C@H]5[C@@H]6CC=C7C[C@@H](O)CC[C@]7(C)[C@H]6CC[C@]5(C)[C@H]4[C@H](C)C(=O)CCC(C)C)[C@@H]3OC(C)=O)OC[C@@H](O)[C@@H]2O)c(C)c1 (some centres not stated): 19.9
2) CCCCC[C@@H]1OCO[C@@]2(C)/C=C(C)/C=C/C(=O)O[C@H]([C@@H](C)[C@@H](O)[C@H](C)[C@@]3(O)C[C@@H](O[C@H]4C[C@@H](O)[C@H](O)[C@@H](C)O4)[C@H](C)[C@@H](C)O3)[C@@H](OC)/C=C/C=C(\C)C[C@@H]1[C@@H]2O (stereo in doubt): 8.22

Input: For the molecule shown here, N#Cc1c(NC(=O)c2ccccc2)sc2c1CCC(=O)C2 , give the reported TGI.
Output: 11

Input: // repeat for CCOC(=O)c1cc2c(OC(C)=O)ccc(OC(C)=O)c2s1 and report
Output: 6.52

Input: // repeat for COc1ccc2cccc(C(=O)c3ccc(C)c4c3CCC4)c2c1 and report
Output: 99.2

Input: // repeat for CCCCCCCCCCCCn1c(C)nc2ccccc21 and report
Output: 28.3

Input: // repeat for CC1(C)CCC[C@]23C(=O)O[C@](O)(C(=O)C4=C[C@@](C)(/C=C/CCCc5ccc6ccc7cccc8ccc5c6c78)CC[C@@]42O)[C@@H]13 and report
Output: 0.329

Input: // repeat for O=C(c1ccccc1Nc1ccnc(C(F)(F)F)c1)N1CCN(c2cccc(Cl)c2)CC1 and report
Output: 24

Input: // repeat for CN1/C(=C\C(I)C(I)C2=[N+](C)c3ccccc3C2(C)C)C(C)(C)c2ccccc21 (configuration not stated) and report
Output: 42.5

Input: // repeat for CCOC(=O)C(C)(C)Oc1ccc2c(=O)cc(-c3ccccc3)oc2c1 and report
Output: 78.4

Input: // repeat for O=C1NC(=O)/C(=C/C=C/c2ccccc2)S1 and report
Output: 57.5
